Assay: qHTS Assay for Spectroscopic Profiling in Resorufin Spectral Region
Conditions: Compound fluorescence, resorufin region 547/598 nm, buffer
From the text: NIH Molecular Libraries Screening Centers Network [MLSCN] NIH Chemical Genomics Center [NCGC] […] While the most informative fluorescent profiling data set is obtained by performing a full excitation and emission scan of each well by using a monochromator-based plate reader, such an approach is practical only on a very limited scale as scanning each well requires long time. […]
The whole screen tested about 59,000 compounds, of which about 25 (0.04%) were called active. The sample as a whole holds a higher share of actives than the screen did.
readout: max dye-equivalent concentration

Cc1cnc(CNc2cc(-c3c(C)noc3C)ncn2)cn1
inactive
O=c1[nH]nc(CSCc2ccccc2Cl)[nH]1
inactive
CCOC(=O)N1CCN(C(=O)c2nn(-c3ccc(C)cc3)c(=O)c3c2c2ccccc2n3C)CC1
inactive
CCC(=O)N1CCc2cc(S(=O)(=O)NC(C(=O)N3CCc4ccccc4C3)C(C)C)ccc21 (stereo unspecified)
inactive
Cc1cc(C)c2[nH]c(=O)c(C(c3nnnn3Cc3ccc4c(c3)OCO4)N3CCCC3)cc2c1 (stereo unspecified)
inactive
Nc1ccc2[nH]cc(CCC(=O)O)c2c1
inactive
Cc1cc(C)cc(OCc2nnc(SCC(=O)OC3CCCCC3)o2)c1
inactive
COc1ccc(CN2C(=O)CN=C2Nc2ccc(C)cc2C)cc1
inactive
O=C(NCCCN1CCOCC1)c1cc(-c2ccc(Cl)cc2)on1
inactive
CCC(C)(C)n1nnnc1C(c1ccccc1OC)N1CCSCC1 (stereo unspecified)
inactive
COc1ccc(S(=O)(=O)NC(CC(=O)NCc2ccccc2OC)c2ccco2)cc1 (stereo unspecified)
inactive
COc1ccc(-n2c(SCC(=O)NCc3cccs3)nnc2-c2ccoc2C)cc1
inactive
CC(C)(C)c1cc(C(=O)NCc2cccnc2)ccn1
inactive
Cc1ccc(S(=O)(=O)N2CCOCC2)cc1C(=O)NCc1ccc(F)cc1
inactive
Cc1cc(C)nc(NC2=NCC(=O)N2c2ccc(Cl)cc2)n1
inactive
C=CCn1c(SCC(=O)NC23CC4CC(CC(C4)C2)C3)nc(O)cc1=O
inactive
Cc1cc(=O)n2nc(N3CCCC(C(=O)NCCC4=CCCCC4)C3)sc2n1 (stereo unspecified)
inactive
CC1(CCC(=O)OC2CCCCC2)OCCO1
inactive
CCOc1ccc(Cn2c(SCCCCC#N)nc3c2c(=O)n(C)c(=O)n3C)cc1OCC
inactive
Cn1c(=O)c(CCc2ccccc2)nc2cnc(Nc3ccccc3)nc21
inactive
Cc1ccc(C(=O)CS(C)(=O)=O)cc1
inactive
COc1cc(OC)c(C(=O)NC2CC(C)(C)NC(C)(C)C2)cc1OC
inactive
Cc1ccc(C(C)C)c(OCc2nnc(SCC(=O)Nc3nccs3)n2C)c1
inactive
COc1cc2[nH]c(=O)n(CCC(=O)NC3CCN(Cc4ccccc4)CC3)c(=O)c2cc1OC
inactive
CCN(CC(=O)NC(C)C)C(=O)CCNC(=O)c1ccc(Cl)cc1
inactive
Cc1nc2ccccc2cc1O
inactive
COc1ccc2c(CC(=O)Nc3nnc(C4CC4)s3)coc2c1
inactive
O=C(Nc1ccccc1)c1cccnc1Nc1ccccc1
inactive
Cc1cccc(NC(=O)CSc2nc3c(c(=O)[nH]2)CCC3)c1C
inactive
O=C(CCCn1c(SCC(=O)c2ccc(F)cc2)nc2ccccc2c1=O)NCc1ccco1
inactive
COCCNC(=O)C(c1ccc(C)o1)N(Cc1cccs1)C(=O)c1snc(C(N)=O)c1N (stereo unspecified)
inactive
O=c1c(-c2ccc(F)cc2)nc2cncnc2n1-c1ccccc1
inactive
CCCC(=O)Nc1cc(OCC)c(NC(=O)NC2CCCCC2)cc1OCC
inactive
O=c1[nH]c(=O)n([C@H]2C[C@H](O)[C@H](CO)O2)cc1Br
inactive
COc1cccc(OCC(O)CN2CCN(CCO)CC2)c1 (stereo unspecified)
inactive
COc1cccc2c(C)c(C(=O)O)[nH]c12
inactive
Cn1cccc1C(=O)N1CCC[C@@]2(CCN(Cc3nccs3)C2)C1
inactive
Cc1ccc(C(=O)NCC(=O)O)cc1S(=O)(=O)N1CCCCC1
inactive
CCOC(=O)Nc1ccc2c(c1)N(C(=O)CN1CCN3CCCC3C1)c1ccccc1CC2 (stereo unspecified)
inactive
CC(=O)N1CCC(C(=O)Nc2nc(-c3ccccc3)ns2)CC1
inactive
O=C1N=C(N2CCOCC2)CS1
inactive
CCOc1cc(C2C(C(=O)OC)=CN(C3CCCC3)C=C2C(=O)OC)cc(Br)c1O
inactive
O=C(O)C1CC=C(Cl)CC1C(=O)NCc1ccccc1 (stereo unspecified)
inactive
Cn1c(SCC(=O)OC2CCCCC2)nnc1-c1ccc(S(=O)(=O)N2CCCC2)cc1
inactive
COc1ccc(Cc2nnnn2CC(=O)O)cc1
inactive
O=C1C(=O)N(CCN2CCOCC2)C(c2ccccn2)/C1=C(/O)c1ccc(Cl)cc1 (stereo unspecified)
inactive
